Field: pEC50. Provide a value for each of the compounds that follow.
# TARGET UNDER TEST: S. aureus Alpha hemolysin (Staphylococcus aureus)
# Sequence (P09616 27-319 limits assumed): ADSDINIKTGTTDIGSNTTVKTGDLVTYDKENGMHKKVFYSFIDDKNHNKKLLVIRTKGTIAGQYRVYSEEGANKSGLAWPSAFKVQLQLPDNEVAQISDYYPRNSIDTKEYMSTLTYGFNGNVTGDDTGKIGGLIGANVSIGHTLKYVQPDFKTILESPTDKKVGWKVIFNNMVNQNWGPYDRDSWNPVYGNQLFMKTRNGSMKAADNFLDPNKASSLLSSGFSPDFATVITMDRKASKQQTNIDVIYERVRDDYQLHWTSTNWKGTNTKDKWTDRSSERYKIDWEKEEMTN
# PROCEDURE SUMMARY: cell-based
# CONDITION CONTEXT: A549-LDH Assay activity
pEC50: −log10 of the molar value.

Req: Specify reported pEC50 for the compound shown: Cc1cc2[nH]c(=O)c(=O)[nH]c2cc1S(=O)(=O)Nc1ccc(OC(F)(F)F)c(Br)c1
Resp: 7.00 to 7.52

Req: Specify reported pEC50 for the compound shown: Cc1nc2cc(-c3ccc(NS(=O)(=O)c4cc5[nH]c(=O)c(=O)[nH]c5cc4C)cc3Cl)ccc2o1
Resp: > 7.52

Req: Specify reported pEC50 for the compound shown: Cc1cc2[nH]c(=O)c(=O)[nH]c2cc1S(=O)(=O)Nc1ccc(N2CCOC[C@H]2C)c(Cl)c1
Resp: 6.00 to 7.00

Req: Specify reported pEC50 for the compound shown: Cc1cc2ccc(-c3ccc(NS(=O)(=O)c4cc5[nH]c(=O)c(=O)[nH]c5cc4C)cc3Cl)cc2[nH]1
Resp: > 7.52

Req: Specify reported pEC50 for the compound shown: COc1cc(NS(=O)(=O)c2cc3[nH]c(=O)c(=O)[nH]c3cc2C)ccc1Br
Resp: 5.22 to 6.00

Req: Specify reported pEC50 for the compound shown: CCOC(=O)c1ccccc1-c1ccc(NS(=O)(=O)c2cc3[nH]c(=O)c(=O)[nH]c3cc2C)cc1
Resp: 5.22 to 6.00

Req: Specify reported pEC50 for the compound shown: Cc1cc2[nH]c(=O)c(=O)[nH]c2cc1S(=O)(=O)Nc1ccc(-c2cccc(O)c2)c(C(F)(F)F)c1
Resp: 7.00 to 7.52

Req: Specify reported pEC50 for the compound shown: Cc1cc2[nH]c(=O)c(=O)[nH]c2cc1S(=O)(=O)Nc1ccc(-c2ccc3c(c2)N(C)C(=O)CO3)c(Cl)c1
Resp: 7.00 to 7.52

Req: Specify reported pEC50 for the compound shown: Cc1cc2[nH]c(=O)c(=O)[nH]c2cc1S(=O)(=O)Nc1cc(C)c(-c2ccccc2Cl)c(C)c1
Resp: 6.00 to 7.00

Req: Specify reported pEC50 for the compound shown: Cc1cc2[nH]c(=O)c(=O)[nH]c2cc1S(=O)(=O)Nc1ccc2ccccc2c1
Resp: 7.00 to 7.52

Req: Specify reported pEC50 for the compound shown: Cc1cc2[nH]c(=O)c(=O)[nH]c2cc1S(=O)(=O)Nc1ccc(-c2ccccc2C(F)(F)F)c(Cl)c1
Resp: 5.22 to 6.00

Req: Specify reported pEC50 for the compound shown: Cc1cc2[nH]c(=O)c(=O)[nH]c2cc1S(=O)(=O)Nc1ccc(-c2ccccc2C(N)=O)cc1
Resp: 6.00 to 7.00

Req: Specify reported pEC50 for the compound shown: Cc1cc2[nH]c(=O)c(=O)[nH]c2cc1S(=O)(=O)Nc1cc(C)c(-c2cc[nH]c2)c(C)c1
Resp: 6.00 to 7.00

Req: Specify reported pEC50 for the compound shown: Cc1cc(C)cc(-c2ccc(NS(=O)(=O)c3cc4[nH]c(=O)c(=O)[nH]c4cc3C)cc2Cl)c1
Resp: 6.00 to 7.00

Req: Specify reported pEC50 for the compound shown: O=c1[nH]c2cc(F)c(S(=O)(=O)Nc3ccc(-c4ccccc4)cc3)cc2[nH]c1=O
Resp: 6.00 to 7.00

The reported measurements were obtained from patent US20240376084A1.
